Reported E. coli MIC is given for each of the following molecules.
Test system: Escherichia coli (UTI89)
Assay: Antimicrobial kill (microdilution) assay, MIC/MBC by CFU count
Type: cell-based
Details: lowest concentration that inhibits the growth of 90% of the inoculation; 3 hours, 0.1×PBS
measure: E. coli MIC (µM)

molecule="F:1-107: recombinant N-terminal RNase 7 fragment, amino acids 1 to 107 (SEQ ID NO: 6), N-terminal His tag (protein, listed as Homo sapiens, N-terminal His tag) KPKGMTSSQWFKIQHMQPSPQACNSAMKNINKHTKRCKDLNTFLHEPFSSVAATCQTPKIACKNGDKNCHQSHGPVSLTMCKLTSGKYPNCRYKEKRQNKSYVVACK" measure="E. coli MIC" unit_symbol=µM number=0.57
molecule="F:1-97: recombinant N-terminal RNase 7 fragment, amino acids 1 to 97 (SEQ ID NO: 5), N-terminal His tag (protein, listed as Homo sapiens, N-terminal His tag) KPKGMTSSQWFKIQHMQPSPQACNSAMKNINKHTKRCKDLNTFLHEPFSSVAATCQTPKIACKNGDKNCHQSHGPVSLTMCKLTSGKYPNCRYKEKR" measure="E. coli MIC" unit_symbol=µM number=0.07
